The measurements presented in this section are drawn from ChEMBL document CHEMBL1141268.

- Measured on: Cyclin-dependent kinase 5/CDK5 activator 1 (Homo sapiens, UniProt Q00535)
- Sequence (Q00535 whole entry): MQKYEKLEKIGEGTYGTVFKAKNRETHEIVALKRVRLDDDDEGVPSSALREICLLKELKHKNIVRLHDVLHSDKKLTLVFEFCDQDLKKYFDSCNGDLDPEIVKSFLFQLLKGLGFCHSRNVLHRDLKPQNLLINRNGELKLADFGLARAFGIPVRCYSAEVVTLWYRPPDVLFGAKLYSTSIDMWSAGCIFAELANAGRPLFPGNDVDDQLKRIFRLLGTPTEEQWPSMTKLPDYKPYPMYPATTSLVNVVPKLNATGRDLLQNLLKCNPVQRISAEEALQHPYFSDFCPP
- Sequence (Q15078 whole entry, further chain): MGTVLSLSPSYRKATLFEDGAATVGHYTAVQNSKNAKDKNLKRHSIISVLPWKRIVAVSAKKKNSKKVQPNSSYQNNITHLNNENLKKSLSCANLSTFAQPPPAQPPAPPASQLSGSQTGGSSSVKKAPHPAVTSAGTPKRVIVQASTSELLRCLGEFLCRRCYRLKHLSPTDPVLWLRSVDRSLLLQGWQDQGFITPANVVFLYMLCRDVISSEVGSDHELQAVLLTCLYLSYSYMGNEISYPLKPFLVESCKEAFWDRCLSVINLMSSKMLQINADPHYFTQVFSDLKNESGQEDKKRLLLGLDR
- Assay details: Inhibition of human recombinant CDK5/p35
Endpoint label: pIC50
One number for each entry, as −log10 of the molar value.

// pIC50 lookup, key: O[C@]12C=C(c3nccc4c3[nH]c3ccccc34)[C@@H]3CCN(CCCC/C=C\CC1)C[C@@]31C[C@@H]3/C=C\CCCCN3[C@H]12 [MANZAMINE A]
5.82
